Reported pKd by item:
- experimental target: T1, EsCas13d, nuclease-dead (Eubacterium siraeum, UniProt B0MS50, R295A;H300A;R849A;H854A)
- T1 sequence: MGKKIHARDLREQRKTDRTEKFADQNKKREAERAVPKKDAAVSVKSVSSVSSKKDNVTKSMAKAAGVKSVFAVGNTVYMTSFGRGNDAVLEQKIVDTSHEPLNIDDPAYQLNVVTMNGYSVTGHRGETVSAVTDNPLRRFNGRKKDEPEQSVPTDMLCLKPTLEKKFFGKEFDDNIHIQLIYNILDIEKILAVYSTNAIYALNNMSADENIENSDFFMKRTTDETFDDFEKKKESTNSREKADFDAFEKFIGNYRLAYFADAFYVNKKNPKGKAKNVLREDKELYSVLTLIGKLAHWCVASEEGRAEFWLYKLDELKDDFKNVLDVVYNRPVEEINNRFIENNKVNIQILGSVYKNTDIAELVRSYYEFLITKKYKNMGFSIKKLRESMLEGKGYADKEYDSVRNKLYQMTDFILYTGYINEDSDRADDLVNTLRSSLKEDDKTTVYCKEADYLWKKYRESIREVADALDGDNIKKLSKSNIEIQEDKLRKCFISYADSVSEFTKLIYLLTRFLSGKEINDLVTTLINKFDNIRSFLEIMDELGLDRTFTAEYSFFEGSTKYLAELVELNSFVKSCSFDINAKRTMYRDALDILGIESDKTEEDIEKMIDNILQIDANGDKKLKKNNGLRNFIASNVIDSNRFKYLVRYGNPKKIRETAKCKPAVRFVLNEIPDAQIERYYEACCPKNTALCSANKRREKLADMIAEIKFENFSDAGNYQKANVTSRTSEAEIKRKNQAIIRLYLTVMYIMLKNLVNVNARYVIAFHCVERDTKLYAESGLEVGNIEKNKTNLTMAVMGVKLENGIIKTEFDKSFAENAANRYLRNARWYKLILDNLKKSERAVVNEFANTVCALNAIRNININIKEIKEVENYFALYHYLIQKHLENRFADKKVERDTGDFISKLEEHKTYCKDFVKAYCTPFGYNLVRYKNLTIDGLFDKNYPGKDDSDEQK
- protocol: crRNA (strand 1, pre-loaded); Mg2+; 40 mM Tris-HCl pH 7.5, 150 mM NaCl, 6 mM MgCl2, 1 mM DTT, 0.1% Tween-20, 0.2 mg/ml BSA; 25 C; 10 min per concentration, then washed
- test parameters: tags: His6-TwinStrep-SUMO cleaved; N-terminal SNAP kept (SNAP-Surface 488); label: 3' end held by stalled T7 RNA polymerase
pKd: −log10 of the molar value.
measured quantity: pKd

binder: target 1 A1C,G13C (mixed) RNA 1: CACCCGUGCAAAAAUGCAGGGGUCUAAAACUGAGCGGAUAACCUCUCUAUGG RNA 2: GGGAAUGGAUCCACAUCUACGAAUUCGUACCAUAGAGACGUUAUCCGCUCCCCGAGAUCGGAAGAGCACACGU
measured value: 7.33

binder: target 1 del7,del9 (mixed) RNA 1: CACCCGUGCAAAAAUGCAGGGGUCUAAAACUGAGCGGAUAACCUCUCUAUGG RNA 2: GGGAAUGGAUCCACAUCUACGAAUUCGUACCAUAGAGAGGUUUCGCUCACCGAGAUCGGAAGAGCACACGU
measured value: 7.91

binder: target 2 MT 5'PFS CUU 3'PFS UUG (mixed) RNA 1: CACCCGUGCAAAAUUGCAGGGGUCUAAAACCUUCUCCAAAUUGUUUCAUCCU RNA 2: GGGAAUGGAUCCACAUCUACGAAUUCCUUAGGAUGAAACAAUUUGGAGAAGUUGAGAUCGGAAGAGCACACGU
measured value: 8.22

binder: target 1 G5A,A20C (mixed) RNA 1: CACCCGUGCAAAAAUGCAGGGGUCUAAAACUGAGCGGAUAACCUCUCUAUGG RNA 2: GGGAAUGGAUCCACAUCUACGAAUUCGUACCCUAGAGAGGUUAUCCACUCACCGAGAUCGGAAGAGCACACGU
measured value: 7.06

binder: target 1 MT 5'PFS CCC 3'PFS UUU (mixed) RNA 1: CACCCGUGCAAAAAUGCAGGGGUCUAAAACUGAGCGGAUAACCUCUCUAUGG RNA 2: GGGAAUGGAUCCACAUCUACGAAUUCCCCCCAUAGAGAGGUUAUCCGCUCAUUUAGAUCGGAAGAGCACACGU
measured value: 8.01

binder: target 1 insA 3' of 11,insG 3' of 8 (mixed) RNA 1: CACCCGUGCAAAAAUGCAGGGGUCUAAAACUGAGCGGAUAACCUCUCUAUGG RNA 2: GGGAAUGGAUCCACAUCUACGAAUUCGUACCAUAGAGAGGUAUAUGCCGCUCACCGAGAUCGGAAGAGCACACGU
measured value: 7.45

binder: target 3 insC 3' of 22,insA 3' of 21 (mixed) RNA 1: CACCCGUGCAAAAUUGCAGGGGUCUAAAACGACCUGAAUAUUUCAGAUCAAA RNA 2: GGGAAUGGAUCCACAUCUACGAAUUCGUUUCUAUGAUCUGAAAUAUUCAGGUCUGCAGAUCGGAAGAGCACACGU
measured value: 7.37

binder: target 3 del4,del5 (mixed) RNA 1: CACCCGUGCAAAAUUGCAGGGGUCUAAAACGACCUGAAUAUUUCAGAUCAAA RNA 2: GGGAAUGGAUCCACAUCUACGAAUUCGUUUUUGAUCUGAAAUAUUCGUCUGCAGAUCGGAAGAGCACACGU
measured value: 7.61
